Biological target: T1, human proGDF11 (human, UniProt O95390 25-407, biotinylated (NHS-PEG4-Biotin), site not stated)
T1 construct: Dimeric complex; also called hu proGDF11; GDF11 prodomain complex
T1 sequence: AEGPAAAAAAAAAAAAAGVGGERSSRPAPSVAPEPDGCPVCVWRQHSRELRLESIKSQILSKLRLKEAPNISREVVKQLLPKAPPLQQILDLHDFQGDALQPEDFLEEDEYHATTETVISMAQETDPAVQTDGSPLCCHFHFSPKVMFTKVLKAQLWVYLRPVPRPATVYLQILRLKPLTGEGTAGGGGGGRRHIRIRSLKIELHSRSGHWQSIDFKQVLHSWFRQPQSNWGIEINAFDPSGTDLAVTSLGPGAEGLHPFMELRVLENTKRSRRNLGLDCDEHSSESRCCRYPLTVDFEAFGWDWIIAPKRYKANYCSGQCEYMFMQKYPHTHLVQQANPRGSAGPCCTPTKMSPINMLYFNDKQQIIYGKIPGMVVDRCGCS
Experiment: BLI (ForteBio Octet)
Assign Kd to each entry below.
Answers are plain numbers, in nM.

A selection of reference data follows.
GDF11 Inh-1 (antibody, V domains shown, also called Clone GDF11 Inh-1) VH: EVQLLESRGGLVQPGRSLRLSCAASGFTFDDYAMHWVRQAPGKGLEWVSGISWNSGSIGYADSVKGRFTISRDNTKNSLYLQMNSLRAEDTGVYYCAREVTGDLDYWGQGTLVTVSS VL: EIVMTQSPGTLSLSPGERATLSCRASQFLSSTYLAWYQQRPGQAPRLLIYSASNRATGVPDRFSGSGSGTDFTLKISRVEAEDVGVYYCMQATHWPYTFGQGTKLEIKR    0.49
GDF11 Inh-3 (antibody, V domains shown, also called Clone GDF11 Inh-3) VH: QVQLVQSGGGVVQPGRSLRLSCAASGFTFSSYAMHWVRQAPGKGLEWVAVISYDGSNEYYADSVKGRFTISRDNSKNTLYLQMNSLRAEDTAVYYCAKDFWSGYPQYNWFDPWGQGTLVTVSS VL: EIVMTQSPATLSLSAGERATLSCRASQSVSNYLAWYQQKPGQAPRLLIYDASNRATGIPARFSGSGSGTDFTLTISSLEPEDFAVYYCQQYGSAPLTFGGGTNVEIKR    0.71
GDF11 Inh-6 (antibody, V domains shown, also called Clone GDF11 Inh-6) VH: QVQLQESGPGLVKPSETLSLTCTVSGGSISSSSYYWGWVRQPPGKGLEWIGEIYHSGSTNYNPSLKSRVTISVDTSKNQFSLKLSSVTAADTAVYYCARVGTSWEYYFDYWGQGTLVTVSS VL: DIQMTQSPASLSASVGDRVTITCRTSQHIINYLNWYQQRPGKAPNLLIYKASTLQSGVPSRFSGSGSGTHFTLTISSLQPEDFATYYCQQYQSYPITFGQGTRLEIKR    0.75

Please examine the following record next.
Look at this binder and give its reported Kd. GDF11 Inh-4 (antibody, V domains shown, also called Clone GDF11 Inh-4) VH: QVQLVQSGAEVKKPGASVKVSCKASGYTFTSYGISWVRQAPGQGLEWMGWISAYNGNTNYAQKLQGRVTMTTDTSTSTAYMELRSLRSDDTAVYYCARTPPLWFGEYGAFDIWGQGAMVTVSS VL: DIQMTQSPSSLSASVGDRVTITCQASQDISNYLNWYQQKPGKAPKLLIYDASNLETGVPSRFSGSGSGTDFTLTISSLQPDDFATYYCQQSYTTPITFGQGTRLEIKR
1.08
